These entries and their values trace back to patent US7160888B2.

Tested system: D2 receptor (Homo sapiens)
Sequence (P14416 whole entry): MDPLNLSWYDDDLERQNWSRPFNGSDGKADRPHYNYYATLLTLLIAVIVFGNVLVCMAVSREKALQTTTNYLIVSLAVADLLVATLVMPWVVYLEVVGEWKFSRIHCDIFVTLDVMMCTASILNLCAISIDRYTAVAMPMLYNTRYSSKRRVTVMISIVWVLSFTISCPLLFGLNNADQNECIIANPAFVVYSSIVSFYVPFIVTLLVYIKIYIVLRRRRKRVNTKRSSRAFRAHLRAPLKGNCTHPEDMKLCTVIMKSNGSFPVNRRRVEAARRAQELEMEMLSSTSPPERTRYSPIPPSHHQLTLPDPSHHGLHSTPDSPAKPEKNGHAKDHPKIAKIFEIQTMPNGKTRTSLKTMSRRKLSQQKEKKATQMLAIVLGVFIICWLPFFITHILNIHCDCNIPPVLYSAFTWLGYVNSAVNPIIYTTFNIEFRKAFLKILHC
Test name: [3H]Thymidine uptake assay for D2 intrinsic activity
Assay type: cell-based
Condition notes: Table 1; test compound 1 μM; 1 μM Quinpirole = 100% intrinsic activity
Response key: Condition met means Emax at 1 µM >= 40%; Condition not met means Emax at 1 µM < 40%.

Compound: CCc1cccc(N2CCN(CCCCCc3ccc4c(n3)NC(=O)CC4)CC2)n1
Answer label: Condition not met

Compound: O=C1CCc2cnc(OCCCCN3CCN(c4cccc5c4CCCC5)CC3)cc2N1
Answer label: Condition not met

Compound: CC1(C)OC(=O)Nc2nc(CCCCCN3CCN(c4cccc(Cl)c4Cl)CC3)ccc21
Answer label: Condition not met

Compound: Cc1nc(OCCCCN2CCN(c3cccc4ccc(F)cc34)CC2)nc2c1ccc(=O)n2C
Answer label: Condition not met

Compound: O=c1ccc2ccc(OCCCCN3CCN(c4cccc5ccccc45)CC3)nc2[nH]1
Answer label: Condition met

Textbook exercise: given the entry COc1ccnc(N2CCN(CCCCOc3ccc4ccc(=O)[nH]c4n3)CC2)n1 , state whether its Emax at 1 µM is greater than or equal to 40%.
Condition met

O=c1ccc2ccc(OCCCCN3CCN(c4ccc(F)cc4)CC3)nc2[nH]1 ?
Condition met
